Read-out: CD38, CD38 (gene 952)
Assay: BSK_SAg_CD38: BioMAP Diversity Plus: SAg Assay for CD38 Biomarker Activity (AID 2283087)
Conditions: primary human HUVEC with PBMC; actives raise or lower the signal
Active and inactive are the calls of the source. How the source made its calls: active means hit-call score of the fitted dose curve at least 0.9, where 1 is the maximum; inactive means score below 0.9.
The reply should name one outcome from active, inactive

These recorded examples may help you get a feel for the data.
compound | category.label
Cc1ccc(C)c(C)c1 | inactive
Cc1oc(-c2ccccc2)nc1CCOc1cccc2c1ccn2CCC(=O)O | inactive

Please share the test call associated with "CCCc1cc(=O)[nH]c(=S)[nH]1" . inactive

// next record "CCOC(=O)CCC(=O)OCC" inactive

====

Test: Tanguay_ZF_120hpf_AXIS_legacy: (Legacy) Oregon State University Tanguay Lab 120 Hour Post-fertilization zebrafish Assay for Body Axis Malformation (AID 2283635)
Records with an inconclusive call do not appear. The source made the active and inactive calls. The calls were made as follows: active = hit-call score of the fitted dose curve at least 0.9, where 1 is the maximum; inconclusive = response in the unintended direction; inactive = score below 0.9.
The reply should name one outcome from active, inactive

compound | category.label
COC(=O)c1ccc(O)cc1 | inactive
Cc1ccc(Cl)cc1 | inactive

Please share the test call associated with CC(=O)C(C)=CC1C(C)=CCCC1(C)C (stereo unspecified) . inactive

// next record CC(CO)OC(C)CO (stereo unspecified) (tested in a mixture with another compound) inactive

// next record "Cc1nc(C)nc(N2C[C@@H](C)N(c3ccnc([C@@H](C)O)n3)[C@@H](C)C2)n1" inactive

// next record "CCCCCCCCCCCCCO" inactive

// next record "CCCCCCCCCCC" inactive

// next record "CCCCc1ccc2c(n1)[C@@H](c1ccc(OC)cc1C[C@H](C)C(=O)O)[C@H](C(=O)O)[C@H]2c1ccc2c(c1)OCO2" inactive

// next record "CC(C)(C)c1cc(O)c(C(C)(C)C)cc1O" active

// next record "Cc1ccc(C)c(O)c1C" inactive

// next record CC1(C)CC(N=C=O)CC(C)(CN=C=O)C1 (stereo unspecified) inactive

// next record "Cc1ccccc1Cl" inactive

// next record "CCOc1ccc2c(c1)C(C)=CC(C)(C)N2" inactive

// next record "Cc1ccc(C)c(C)c1" inactive

// next record "CCCCCCCCCCCC(=O)OC" inactive

// next record "CN1CCCC1=O" inactive

// next record "CC(=O)OCCOCCOCCOC(C)=O" inactive

// next record "COc1cc(-c2nc(NC(=O)c3cc4cc(C)cc(C)c4n3CC(=O)O)sc2CCC2CCCCC2)c(OC)cc1Cl" inactive
